- Organism: Homo sapiens
- measurementNotes: In vitro ability to inhibit the adhesion of neutrophil activated by platelet activating factor (PAF) to serum-coated plastic wells was determined
- Format: functional
I'd be grateful if you could share measured IC50 for these entries.
Answers are plain numbers, in µM.

smilesNotation	IC50 [µM]
Cc1ccc2c(c1)C(COC(=O)N[C@@H](CC(C)C)C(=O)O)c1cc(C)ccc1-2	31.7

Lab note: each compound below needs its IC50 filled in.
1. O=C(O)c1ccc(CC2c3ccccc3-c3ccccc32)cc1
2. O=C(Nc1ccc(C(=O)O)cc1)OCCC1c2cc(Cl)ccc2-c2ccc(Cl)cc21

## Result
17.8
17.8

Lab note: each compound below needs its IC50 filled in.
1. O=C(O)c1ccc(OCCCCC2c3ccccc3-c3ccccc32)cc1
2. O=C(O)c1ccc(OCCCCCC2c3ccccc3-c3ccccc32)cc1
3. O=C(O)c1ccc(OCCCC2c3ccccc3-c3ccccc32)cc1

## Result
1: 5.2; 2: 11.7; 3: 36.4

###

- measurementNotes: In vitro ability to inhibit adherence of activated polymorphonuclear granulocytes to endothelial cells using IFN gamma-(HUVEC) assay was determined
- cond: Homo sapiens
I'd be grateful if you could share measured pIC50 for these entries.
Numbers only, as −log10 of the molar value.

Study these solved cases before continuing.
molecule	pIC50
O=C(O)c1ccc(OCCCCC2c3ccccc3-c3ccccc32)cc1	4.70
O=C(O)C(CCCCC1c2ccccc2-c2ccccc21)Cc1ccccc1 (configuration not stated)	4.99
O=C(O)c1ccc(OCCCCCC2c3ccccc3-c3ccccc32)cc1	4.32
O=C(O)c1ccc(CC2c3ccccc3-c3ccccc32)cc1	4.04
O=C(Nc1ccc(C(=O)O)cc1)OCCC1c2cc(Cl)ccc2-c2ccc(Cl)cc21	4.58

Lab note: each molecule below needs its pIC50 filled in.
1. Cc1ccc2c(c1)C(COC(=O)N[C@@H](CC(C)C)C(=O)O)c1cc(C)ccc1-2
2. O=C(O)c1ccc(OCCCC2c3ccccc3-c3ccccc32)cc1

## Result
[3.93, 4.63]

###

- Species: Homo sapiens
- measurementNotes: In vitro ability to inhibit the adhesion of neutrophil activated by tumor necrosis factor (alpha-TNF) to serum-coated plastic wells.
- Format: functional, organism-based
readoutLabel: IC50 (µM)
Numbers only, in µM.

Study these solved cases before continuing.
smilesNotation	IC50 [µM]
O=C(O)c1ccc(OCCCCCC2c3ccccc3-c3ccccc32)cc1	7.13
CC(C)C[C@H](NC(=O)OCC1c2ccccc2-c2ccccc21)C(=O)O	78
O=C(Nc1ccc(C(=O)O)cc1)OCCC1c2cc(Cl)ccc2-c2ccc(Cl)cc21	9.8

Lab note: each compound below needs its IC50 filled in.
1. O=C(O)c1cccc(OCCCC2c3ccccc3-c3ccccc32)c1
2. O=C(Nc1ccccc1C(=O)O)OC1c2ccccc2-c2ccccc21
3. O=C(O)c1ccc(C2c3ccccc3-c3ccccc32)cc1

## Result
13.8
19
81.6

Lab note: each compound below needs its IC50 filled in.
1. O=C(O)c1ccc(OCCCCC2c3ccccc3-c3ccccc32)cc1
2. O=C(O)c1ccc(OCCCC2c3ccccc3-c3ccccc32)cc1
3. O=C(O)CCCC1c2ccccc2-c2ccccc21

## Result
7.53
15.6
97

###

- measurementNotes: LD50 value for polymorphonuclear granulocytes was determined
- Type: ADME
- cond: human, read-out: LD50 (the source's name)
readoutLabel: CC50 (µM)
Give bare numbers, in µM.

Study these solved cases before continuing.
compound	unitsText	CC50
O=C(O)c1ccc(OCCCCC2c3ccccc3-c3ccccc32)cc1	µM	113
O=C(O)C(CCCCC1c2ccccc2-c2ccccc21)Cc1ccccc1 (stereo unspecified)	µM	79
O=C(O)c1ccc(OCCCCCC2c3ccccc3-c3ccccc32)cc1	µM	295
O=C(O)c1ccc(OCCCC2c3ccccc3-c3ccccc32)cc1	µM	281
Cc1ccc2c(c1)C(COC(=O)N[C@@H](CC(C)C)C(=O)O)c1cc(C)ccc1-2	µM	343

Please look at the following compound next.
## Task Look up CC50: O=C(O)c1ccc(CC2c3ccccc3-c3ccccc32)cc1
## Result 306

###

- Species on record: Homo sapiens
- measurementNotes: In vitro ability to inhibit the adhesion of neutrophil activated by tumor necrosis factor (alpha-TNF) to serum-coated plastic wells.
- Type: functional, organism-based
I'd be grateful if you could share measured IC50 for these entries.
Answers are plain numbers, in µM.

Study these solved cases before continuing.
smilesNotation	IC50 / µM
O=C(O)c1ccc(CC2c3ccccc3-c3ccccc32)cc1	27.6
O=C(O)CCCCCCCC1c2ccccc2-c2ccccc21	32.2
O=C(O)c1cccc(OCCCCC2c3ccccc3-c3ccccc32)c1	6.6
CC(C)(C)c1ccc2c(c1)C(CCCCOc1ccc(C(=O)O)cc1)c1cc(C(C)(C)C)ccc1-2	8

Lab note: each compound below needs its IC50 filled in.
1. O=C(O)c1ccccc1OCCCCCC1c2ccccc2-c2ccccc21
2. O=C(Nc1ccc(C(=O)O)cc1)OCCC1c2ccccc2-c2ccccc21
3. O=C(O)c1ccc(OCCCCC2c3cc(Cl)ccc3-c3ccc(Cl)cc32)cc1

## Result
15.8
30
8.1

Lab note: each compound below needs its IC50 filled in.
1. O=C(O)c1ccccc1OCCC1c2ccccc2-c2ccccc21
2. O=C(O)CCCCC1c2ccccc2-c2ccccc21
3. O=C(Nc1ccc(C(=O)O)cc1)OC1c2ccccc2-c2ccccc21

## Result
1. 73.3
2. 87
3. 30

###

- Species: Homo sapiens
- measurementNotes: In vitro ability to inhibit the adhesion of neutrophil activated by tumor necrosis factor (alpha-TNF) to serum-coated plastic wells.
- Assay type: functional, organism-based
readoutLabel: pIC50
Give bare numbers, as −log10 of the molar value.

molecule	pIC50
O=C(O)c1cccc(OCCC2c3ccccc3-c3ccccc32)c1	4.51
O=C(O)CCCCCCCCCC1c2ccccc2-c2ccccc21	4.94
O=C(O)c1ccc(CC2c3cc(Cl)ccc3-c3ccc(Cl)cc32)cc1	4.54

Lab note: each molecule below needs its pIC50 filled in.
1. O=C(O)c1ccccc1OCCCC1c2ccccc2-c2ccccc21
2. O=C(O)c1ccc(OCCC2c3ccccc3-c3ccccc32)cc1
3. O=C(O)C(CCCCC1c2ccccc2-c2ccccc21)Cc1ccccc1 (stereo unspecified)
4. Cc1ccc2c(c1)C(COC(=O)N[C@@H](CC(C)C)C(=O)O)c1cc(C)ccc1-2
5. O=C(O)c1cccc(OCCCCCC2c3ccccc3-c3ccccc32)c1
6. O=C(N[C@@H](Cc1ccccc1)C(=O)O)OCC1c2ccccc2-c2ccccc21
7. O=C(O)CCCCCC1c2ccccc2-c2ccccc21

## Result
1. 4.26
2. 4.85
3. 5.22
4. 4.38
5. 5.28
6. 4.24
7. 4.26

The measured values listed here are drawn from ChEMBL document CHEMBL1128354.
